Hello, the source for this data is patent US20170226169A1, in case you need it.

target: 109QmHtt (UniProt P42858); test: cell-based or functional assay
Sequence (P42858 other isoform, or with tags, fused parts or gaps): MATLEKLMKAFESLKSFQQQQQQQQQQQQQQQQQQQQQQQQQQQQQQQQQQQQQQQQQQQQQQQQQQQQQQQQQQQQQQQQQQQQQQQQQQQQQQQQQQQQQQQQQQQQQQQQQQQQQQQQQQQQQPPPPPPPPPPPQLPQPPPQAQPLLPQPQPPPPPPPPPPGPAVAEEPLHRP
property name: average size of the aggregates (TIRF microscopy, Neuro2a cells) (µm^2)

[
  {
    "binder": "RRRRRRRRWDQQQQQQQQQQQQQQQ (C-terminal amide (CONH2)) [8R15Q]",
    "readout units": "µm^2",
    "reported": 0.2
  }
]

I = RQQRRQQDQRQWQRQRQQR (C-terminal amide (CONH2)) [s8R10Q]
II = RRRRRRRRWD (C-terminal amide (CONH2)) [8R]
Q: Pick one: I or II . Which one has the lower reported average size of the aggregates (TIRF microscopy, Neuro2a cells)? Answer format: the label of the selected item.
Ans: I
